- measured.target: wt GPR55 (Gα13 mutant R331D) (Homo sapiens)
- Sequence (Q9Y2T6 whole entry, stated change not applied): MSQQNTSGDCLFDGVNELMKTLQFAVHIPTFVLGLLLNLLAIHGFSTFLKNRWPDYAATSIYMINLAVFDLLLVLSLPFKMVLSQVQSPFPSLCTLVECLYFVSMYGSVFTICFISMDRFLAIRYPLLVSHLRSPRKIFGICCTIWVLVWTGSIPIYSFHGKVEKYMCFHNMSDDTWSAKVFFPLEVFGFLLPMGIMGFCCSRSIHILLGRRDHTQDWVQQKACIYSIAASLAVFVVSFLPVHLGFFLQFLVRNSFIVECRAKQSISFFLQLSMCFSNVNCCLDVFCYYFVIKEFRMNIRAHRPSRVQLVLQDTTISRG
- Sequence (Q14344 whole entry R331D partner): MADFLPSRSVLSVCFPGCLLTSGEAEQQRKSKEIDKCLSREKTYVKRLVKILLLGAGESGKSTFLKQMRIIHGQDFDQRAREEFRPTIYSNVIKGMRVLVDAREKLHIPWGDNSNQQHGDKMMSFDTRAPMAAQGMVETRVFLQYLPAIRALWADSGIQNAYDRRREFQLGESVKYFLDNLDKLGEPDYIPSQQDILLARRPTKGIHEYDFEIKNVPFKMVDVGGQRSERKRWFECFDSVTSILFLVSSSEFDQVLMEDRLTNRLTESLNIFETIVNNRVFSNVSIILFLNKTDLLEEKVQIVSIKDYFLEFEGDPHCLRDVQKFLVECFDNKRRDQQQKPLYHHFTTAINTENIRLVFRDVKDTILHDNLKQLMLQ
- Sequence (P16520 whole entry partner): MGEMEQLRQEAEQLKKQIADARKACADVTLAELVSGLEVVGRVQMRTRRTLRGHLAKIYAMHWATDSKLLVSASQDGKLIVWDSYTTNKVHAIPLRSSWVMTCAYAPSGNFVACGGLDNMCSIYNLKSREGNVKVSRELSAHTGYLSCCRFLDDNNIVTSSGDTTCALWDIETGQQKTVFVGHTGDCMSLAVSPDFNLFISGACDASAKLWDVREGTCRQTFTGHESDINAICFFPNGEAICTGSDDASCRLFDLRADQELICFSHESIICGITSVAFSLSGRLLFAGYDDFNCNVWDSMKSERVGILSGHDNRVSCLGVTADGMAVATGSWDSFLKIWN
- Sequence (O14610 1-66 partner limits assumed): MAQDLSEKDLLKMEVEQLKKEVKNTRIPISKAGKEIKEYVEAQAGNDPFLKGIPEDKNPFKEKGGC
- assay.details: BRET² G protein dissociation assay, wt GPR55 with Gα13-R331D
- cond: wt GPR55, Gα13-R331D
measurement.type: EC50 (nM)
Respond numerically; units are nM and should not be typed.

Problem: What value of measured EC50 is listed for Cc1cccc(N2CCN(C(=O)c3cc(S(=O)(=O)N(C)C)ccc3N3CCCC3)CC2)c1C [ML184] ?
Result: 33.9

* * *

- measured.target: GPR55 mutant N171Q (Gα13) (Homo sapiens, UniProt Q9Y2T6, N171Q)
- Sequence (Q9Y2T6 whole entry N171Q): as the sequence (Q9Y2T6 whole entry, stated change not applied) above, with N171Q counted along it
- Sequence (Q14344 whole entry partner): as the sequence (Q14344 whole entry R331D partner) above, with D331R counted along it
- Sequence (P16520 whole entry partner): as the sequence (P16520 whole entry partner) above
- Sequence (O14610 1-66 partner limits assumed): as the sequence (O14610 1-66 partner limits assumed) above
- assay.details: BRET² G protein dissociation assay, GPR55 N171Q with Gα13
- cond: GPR55 N171Q, Gα13
measurement.type: pEC50
When answering, recall that pEC50 equals minus log10 of the concentration in mol/L, and write that number alone.

Problem: What value of measured pEC50 is listed for "Cc1cccc(N2CCN(C(=O)c3cc(S(=O)(=O)N(C)C)ccc3N3CCCC3)CC2)c1C" ?
Result: 5.85
